Where do the numbers come from? From patent US7935722B2.

property measured: melting point

Consider the compound CC(C)C(=O)NC1CCc2c(c3cc(Cl)ccc3n2Cc2ccc(Cl)cc2)C1 (stereo not shown) and give its recorded melting point. 176 to 178 °C

Specify reported melting point for the compound shown: CCOC(=O)c1ccc2c(c1)c1c(n2Cc2cccc(F)c2)CCC(NC(=O)C(C)C)C1 (stereo not shown) 226 to 228 °C

Return melting point (reported value) for this compound: COc1cccc(Cn2c3c(c4cc(Cl)ccc42)CC(NC(=O)C(C)C)CC3)c1 (stereo not shown) 178 to 181 °C

Kindly indicate its recorded melting point. Item: CO/N=C/c1ccc2c(c1)c1c(n2Cc2cccc(F)c2)CC[C@@H](NC(=O)C2CC2)C1 200 to 203 °C

Please list melting point recorded for the compound CC(C)C(=O)NC1CCc2c(c3cc(F)ccc3n2Cc2ccc(C#N)cc2)C1 (stereo not shown) 181 to 184 °C

Quickly give me recorded melting point for COc1ccc(Cn2c3c(c4cc(Br)ccc42)CC(NC(=O)C(C)C)CC3)cc1 (stereo not shown) 120 to 125 °C

Tell me melting point reported for COc1ccccc1Cn1c2c(c3cc(Br)ccc31)CC(NC(=O)C(C)C)CC2 (stereo not shown) 108 to 111 °C

Return melting point (reported value) for this compound: CC(C)C(=O)NC1CCc2c(c3cc(F)ccc3n2Cc2cccc(Cl)c2)C1 (stereo not shown) 177 to 179 °C

Give the measured melting point for CC(C)C(=O)NC1CCc2c(c3cc(Br)ccc3n2Cc2cccc(Cl)c2)C1 (stereo not shown) 186 to 188 °C

Input CC(C)C(=O)NC1CCc2c(c3cc(C#N)ccc3n2Cc2cccc(F)c2)C1 (stereo not shown) , output reported melting point. 195 to 199 °C

Answer with the recorded melting point of CCOC(=O)Nc1ccc2c(c1)c1c(n2Cc2cccc(F)c2)CC[C@@H](NC(=O)C(C)C)C1 only. 169 to 171 °C

Answer with reported melting point of CC(C)C(=O)NC1CCc2c(c3cc4c(cc3n2Cc2cccc(F)c2)OC(F)(F)O4)C1 (stereo not shown) 197 to 199 °C

Give me measured melting point, please, for this compound: CC(C)C(=O)NC1CCc2c(c3cc(Cl)ccc3n2Cc2cccc(F)c2)C1 (stereo not shown) 187 to 189 °C

Provide melting point value for the following compound: CC(C)C(=O)NC1CCc2c(c3cc(Br)ccc3n2Cc2cccc(F)c2)C1 (stereo not shown) 177 to 179 °C

Write down melting point measured for item CC(C)C(=O)N[C@@H]1CCc2c(c3cc(Br)ccc3n2Cc2cccc(F)c2)C1 204 to 207 °C

Could you please provide reported melting point for CC(C)C(=O)NC1CCc2c(c3cc(Br)ccc3n2Cc2ccccc2Cl)C1 (stereo not shown) ? Thanks! 196 to 198 °C

Tell us which melting point value is on record for COc1cccc(Cn2c3c(c4cc(Br)ccc42)CC(NC(=O)C(C)C)CC3)c1 (stereo not shown) 176 to 180 °C

# return recorded melting point for input CC(C)C(=O)NC1CCc2c(c3ccccc3n2Cc2cccc(F)c2)C1 (stereo not shown) 170 to 172 °C

Indicate the recorded melting point value for this compound: CC(C)C(=O)NC1CCc2c(c3cc(C#N)ccc3n2Cc2ccccc2C(F)(F)F)C1 (stereo not shown) 222 to 225 °C

Query melting point for CC(C)C(=O)NC1CCc2c(c3cc(Br)ccc3n2Cc2ccc(F)cc2)C1 (stereo not shown) 165 to 170 °C

Report measured melting point; entry is COc1ccc(Cn2c3c(c4cc(Cl)ccc42)CC(NC(=O)C(C)C)CC3)cc1 (stereo not shown) 182 to 184 °C

Let me know recorded melting point for CC(C)C(=O)NC1CCc2c(c3cc(Br)ccc3n2Cc2ccc(Cl)cc2)C1 (stereo not shown) , thanks. 142 to 149 °C

Annotate the compound CC(C)C(=O)N[C@@H]1CCc2c(c3cc(C#N)ccc3n2Cc2cccc(F)c2)C1 (single isomer, unassigned) with its measured melting point. 223 to 225 °C

Please indicate melting point recorded for Cc1cc(-c2ccc3c(c2)c2c(n3Cc3cccc(F)c3)CC[C@@H](NC(=O)C3CC3)C2)no1 190 to 192 °C

Give the measured melting point for CC(C)C(=O)NC1CCc2c(c3cc(C#N)ccc3n2Cc2ncccc2F)C1 (stereo not shown) 213 to 216 °C

Report melting point for CC(C)C(=O)NC1CCc2c(c3cc(-c4ccccn4)ccc3n2Cc2cccc(F)c2)C1 (stereo not shown) 228 to 230 °C

Let me know recorded melting point for CC(C)C(=O)NC1CCc2c(c3cc4c(cc3n2Cc2cccc(F)c2)OCO4)C1 (stereo not shown) , thanks. 250 to 255 °C

Let me know recorded melting point for CC(C)C(=O)NC1CCc2c(c3cc(Cl)ccc3n2Cc2ccccc2Cl)C1 (stereo not shown) , thanks. 197 to 199 °C

Provide melting point value for the following compound: CC(C)C(=O)NC1CCc2c(c3cc(Cl)ccc3n2Cc2ccccc2F)C1 (stereo not shown) 190 to 193 °C

Please list melting point recorded for the compound CC(C)C(=O)NC1CCc2c(c3cccc(Cl)c3n2Cc2cccc(F)c2)C1 (stereo not shown) 205 to 207 °C

Give the value of melting point reported for the following: CC(C)C(=O)NC1CCc2c(c3cc(Br)ccc3n2Cc2ccccc2F)C1 (stereo not shown) 194 to 197 °C

Look up melting point of CC(C)C(=O)NC1CCc2c(c3ccccc3n2Cc2ccccc2)C1 (stereo not shown) and report it. 191 to 193 °C

Hello, please tell me recorded melting point for this one: Cc1ccc2c(c1)c1c(n2Cc2cccc(C#N)c2)CCC(NC(=O)C(C)C)C1 (stereo not shown) 209 to 211 °C

State its melting point for this compound: CO/N=C/c1ccc2c(c1)c1c(n2Cc2ccccn2)CCC(NC(=O)C2CC2)C1 (stereo not shown) 88 to 92 °C
